Where do the numbers come from? From PubChem BioAssay AID492956.

target: Platelet-activating factor acetylhydrolase 2, cytoplasmic (Homo sapiens); assay: inhibition of cytoplasmic PAF acetylhydrolase 2 – biochemical, fluorescence polarization, human, primary screen (AID 492956); details: recombinant PAFAH2, FP-rhodamine activity probe, at 3.39 µM, hits give high values;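 further: inhibitors block probe labeling of enzyme so polarization drops; 0% = enzyme with DMSO and 100% = wells lacking PAFAH2 protein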
Among all 340,000 compounds or so, about 3,300 (0.97%) were called active. For the sample, actives were picked, then their nearest neighbours and some compounds at random.
Quantity kind: inhibition (%)
Give the number; % is assumed, so skip it.

INSERT INTO assay_data (compound, measurement_target, quantity_kind, assay_result) VALUES
  ('O=C(COC(=O)c1ccccc1)Nc1cccc(S(=O)(=O)N2CCOCC2)c1', 'Platelet-activating factor acetylhydrolase 2, cytoplasmic (Homo sapiens)', 'inhibition', 37.7),
  ('O=C(COC(=O)/C=C/c1ccc(Br)o1)Nc1cccc(S(=O)(=O)N2CCOCC2)c1', 'Platelet-activating factor acetylhydrolase 2, cytoplasmic (Homo sapiens)', 'inhibition', 42);

Prompt line: Any idea what inhibition was measured for "Cc1cc(NC(=O)COc2ccc([N+](=O)[O-])cc2)no1" ?
Response line: -0.25

Prompt line: What value of inhibition has been recorded for this entry: "COC(=O)c1cc(C(=O)OCC(=O)Nc2cc(C)on2)cc([N+](=O)[O-])c1"
Response line: -6.33

Prompt line: Given the entry "Cc1cc(NC(=O)COC(=O)/C=C/c2ccc(C)o2)no1" , report its measured inhibition.
Response line: 33.3

Prompt line: So what does the record say about inhibition for "CC(=O)c1cccc(OCC(=O)OCC(=O)Nc2cc(S(=O)(=O)N3CCCCC3)ccc2C)c1" ?
Response line: 1.56

Prompt line: # input compound: "O=C(CN1CCc2ccccc2C1)Nc1cccc(S(=O)(=O)N2CCOCC2)c1" ; wanted: its inhibition
Response line: 5.27

Prompt line: Fill in the blank: the reported inhibition of "Cc1ccc(CNC(=O)COC(=O)C2CCC2)cc1" is ____.
Response line: 3.66

Prompt line: Entry "CS(=O)(=O)c1ccc(Cl)c(NC(=O)COC(=O)c2cccc(S(=O)(=O)N3CCCC3)c2)c1" : reported inhibition = ?
Response line: 32.3

Prompt line: Tell me the measured inhibition of "CC(=O)N(C1=C(Cl)C(=O)c2ccccc2C1=O)c1ccc(C(=O)O)cc1" , please.
Response line: 10.5

Prompt line: If you can, please state the reported inhibition value of "Cc1ccc(NC(=O)C(=O)NCC2CCN(C(=O)c3cccc([N+](=O)[O-])c3)CC2)cc1" .
Response line: 3.36

Prompt line: Query: inhibition; subject: "O=C(CSc1ccccc1)Nc1cccc(S(=O)(=O)N2CCOCC2)c1"
Response line: -0.86

Prompt line: Give its inhibition value. Item: "O=C1C(Cl)=C(Oc2ccccc2)C(=O)c2ccccc21"
Response line: 43.1

Prompt line: # query: inhibition of entry CC(NC(=O)c1ccccc1)C(=O)OCC(=O)Nc1cccc(S(=O)(=O)N2CCCC2)c1 (stereo unspecified)
Response line: 7.86

Prompt line: Record request: inhibition value, item "O=C(CSCc1c(Cl)cccc1Cl)NN1C(=O)c2ccccc2C1=O"
Response line: 11.8

Prompt line: Endpoint output: inhibition of CC(OC(=O)c1c(F)cccc1F)C(=O)NCCC1=CCCCC1 (stereo unspecified) . Value?
Response line: 8.3

Prompt line: Requested read-out: inhibition. Entry: "O=C(COC(=O)CCOc1ccccc1)Nc1cc(S(=O)(=O)N2CCCCC2)ccc1Cl"
Response line: -0.76

Prompt line: Param item = "Cc1ccc(/C=C/C(=O)OCC(=O)NCc2ccc(Cl)cc2)o1" ; retrieve measured inhibition.
Response line: 53

###

biological target: Platelet-activating factor acetylhydrolase 2, cytoplasmic (Homo sapiens); assay: inhibition of cytoplasmic PAF acetylhydrolase 2 – biochemical, fluorescence polarization, human, primary screen (AID 492956); conditions: recombinant PAFAH2, FP-rhodamine activity probe, at 3.39 µM, hits give high values
Screen size: about 340,000 compounds; about 3,300 (0.97%) were called active. The list comes from a sample in which actives are over-represented; it also holds close analogues and randomly drawn compounds.
Quantity kind: inhibition (%)
Express the result in % but write the number alone.

INSERT INTO results (molecule, value_units, assay_result) VALUES
  ('Cn1c(=O)c2c(ncn2CC(=O)N/N=C/c2cn[nH]c2-c2ccc(F)cc2)n(C)c1=O', '%', 3.66),
  ('C=CCNC(=O)c1sc(SC)cc1-c1ccc(Cl)cc1', '%', 2.46),
  ('Cc1c2cnn(CC(=O)NCCCN3CC(C)CC(C)C3)c(=O)c2c(C)n1Cc1ccc(Cl)cc1 (stereo not given)', '%', 5.22),
  ('CCOC(=O)C1=C(c2ccccc2)O/C(=C(/C(=O)OC)C(F)(F)F)S1', '%', 1.19);

Prompt line: Which inhibition value is on record for Cc1cc(OCC(=O)NCC(O)c2ccccc2)c2c(C)c(C)c(=O)oc2c1 (stereo not given) ?
Response line: 0.4

Prompt line: Quick one: inhibition of "Cc1c(C)c2c(OCC(=O)N[C@@H](C(=O)O)c3ccccc3)cc3c(c2oc1=O)CCC(C)(C)O3" ?
Response line: 90.8

###

Catalogue of inhibition readings, one per entry.
molecular target: Platelet-activating factor acetylhydrolase 2, cytoplasmic (Homo sapiens); test: inhibition of cytoplasmic PAF acetylhydrolase 2 – biochemical, fluorescence polarization, human, primary screen (AID 492956); conditions: recombinant PAFAH2, FP-rhodamine activity probe, at 3.39 µM, hits give high values;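 further: inhibitors block probe labeling of enzyme so polarization drops; 0% = enzyme with DMSO and 100% = wells lacking PAFAH2 protein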
Among all 340,000 compounds or so, about 3,300 (0.97%) were called active. The sample holds actives, similar compounds and a random draw of the others, so the mix is not that of the screen.

Record excerpt, results attached:
INSERT INTO results (molecule, measurement_target, assay_result) VALUES
  ('O=C(Cc1ccc(S(=O)(=O)N2CCOCC2)s1)NCCOc1ccccc1F', 'Platelet-activating factor acetylhydrolase 2, cytoplasmic (Homo sapiens)', '38.8% (active)'),
  ('Cc1cc(C(=O)N2CCN(c3ccccn3)CC2)c(C)o1', 'Platelet-activating factor acetylhydrolase 2, cytoplasmic (Homo sapiens)', '-1.14% (inactive)'),
  ('COCCNC(=O)CN1C(=O)CSc2ncccc21', 'Platelet-activating factor acetylhydrolase 2, cytoplasmic (Homo sapiens)', '3.18% (inactive)'),
  ('CCOC(=O)NC(=O)/C(C#N)=C\c1ccccc1', 'Platelet-activating factor acetylhydrolase 2, cytoplasmic (Homo sapiens)', '-7.65% (inactive)'),
  ('Cc1cc(C(=O)COc2ccccc2Cl)c(C)n1C1CC1', 'Platelet-activating factor acetylhydrolase 2, cytoplasmic (Homo sapiens)', '0.58% (inactive)'),
  ('COC(=O)C1=C(C(=O)OC)C(c2cc([N+](=O)[O-])ccc2O)c2sc(=O)[nH]c2S1 (centres undefined)', 'Platelet-activating factor acetylhydrolase 2, cytoplasmic (Homo sapiens)', '11.7% (inactive)');

Now look at this entry.
Prompt line: Find the measured inhibition: item "CN1C(=O)[C@H]2[C@@H](/C=C/c3ccccc3)N3C(=O)CN(Cc4ccc(-c5ccccc5)cc4)C(=O)[C@@]3(C)[C@H]2C1=O" , target or system Platelet-activating factor acetylhydrolase 2, cytoplasmic (Homo sapiens).
Response line: 6.34% (inactive)

###

target: Platelet-activating factor acetylhydrolase 2, cytoplasmic (Homo sapiens); assay: inhibition of cytoplasmic PAF acetylhydrolase 2 – biochemical, fluorescence polarization, human, primary screen (AID 492956); conditions: recombinant PAFAH2, FP-rhodamine activity probe, at 3.39 µM;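 further: inhibitors block probe labeling of enzyme so polarization drops; 0% = enzyme with DMSO and 100% = wells lacking PAFAH2 protein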
Among all 340,000 compounds or so, about 3,300 (0.97%) were called active.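 The calls were made as follows: active = inhibition above the mean over all tested compounds plus 3 SD (cut at about 30% in these data); inactive = the rest.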 Shown is part of a subset that was picked to be rich in actives.
Would you mind answering with one of these outcomes? YES for active, NO for inactive

Examples from the recorded data:
INSERT INTO assay_data (input_smiles, class_label) VALUES
  ('O=c1oc(-c2ccccc2NS(=O)(=O)c2ccc(Cl)cc2)nc2ccccc12', 'YES'),
  ('CSc1nc(-c2ccco2)nn1C(=O)c1ccccc1Cl', 'NO'),
  ('Cn1c(NN)nc2sc3c(c2c1=O)CCC3', 'NO'),
  ('O=c1ccc2cc(S(=O)(=O)Nc3ccccc3F)ccc2o1', 'NO'),
  ('O=c1oc2ccccc2c(NC2CCCCC2)c1NS(=O)(=O)c1ccc(Cl)cc1', 'NO');

Consider now this further compound.
Prompt line: Which outcome was entered for the compound "Cc1cc(=O)oc2c(C)c(OCC(=O)NCCN3CCOCC3)ccc12" in this test?
Response line: NO

###

target: Platelet-activating factor acetylhydrolase 2, cytoplasmic (Homo sapiens); experiment: inhibition of cytoplasmic PAF acetylhydrolase 2 – biochemical, fluorescence polarization, human, primary screen (AID 492956); conditions: recombinant PAFAH2, FP-rhodamine activity probe, at 3.39 µM, hits give high values;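 further: inhibitors block probe labeling of enzyme so polarization drops; 0% = enzyme with DMSO and 100% = wells lacking PAFAH2 protein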
Screen size: about 340,000 compounds; about 3,300 (0.97%) were called active. What follows is part of a selection rich in actives, with near analogues and random picks from the rest.
Quantity kind: inhibition (%)
Write the answer as a number in %, unit excluded.

// below: answered compounds
INSERT INTO assay_data (compound, quantity_kind, value_units, assay_result) VALUES
  ('COc1ccccc1Nc1nc(N)nc(CSC(=S)N2CCOCC2)n1', 'inhibition', '%', 30.8),
  ('Cc1ccccc1Nc1nc(N)nc(CSc2ccccc2)n1', 'inhibition', '%', 3.88),
  ('COc1cccc(NC(=O)[C@H](Cc2c[nH]c3ccccc23)NC(=O)[C@@H]2Cc3ccccc3CN2)c1', 'inhibition', '%', 4.49),
  ('CCC(CC)c1nnc(NC(=O)c2nn(C)c(=O)c3ccccc23)s1', 'inhibition', '%', 0.88),
  ('Cc1cc(C)n(CCNCc2c(C(=O)N3C[C@@H](C)O[C@@H](C)C3)nc3ccc(Cl)cn23)n1', 'inhibition', '%', 0.53);

Prompt line: What inhibition value was documented for this compound, "CCOC(=O)c1ccccc1OC(=O)Oc1ccccc1C(=O)OCC" ?
Response line: 2.01

Prompt line: Given "Cc1c(CN2CCC(CO)(CCOc3ccccc3)CC2)[nH]c2ccc(Cl)cc12" , state its recorded inhibition.
Response line: -1.75

Prompt line: Which inhibition reading was recorded for the compound CCCC(CCC(=O)OC)(C(=O)OCC)c1csc(N)n1 (stereo unspecified) ?
Response line: 3.59

Prompt line: Entry under review: COCC1CCN(C(=O)c2ccc3oc(Cc4ccccc4)nc3c2)C1 (stereo unspecified) . Reported inhibition?
Response line: 58.9

Prompt line: What does the record list as inhibition for CCOC(=O)C1=C(C)c2ccccc2OC1(C)C(=O)OCC (stereo unspecified) ?
Response line: 0.57

Prompt line: Which inhibition reading was recorded for the compound "Cc1ccc(OCC(=O)Nc2cccc3c2CCCC3)cc1C" ?
Response line: -17.9
